// data source = patent US11312769B2

- Test system: hTMEFF1-ECD recombinant deletion mutants
- run-description: Binding domain determination with hTMEFF1-ECD deletion mutants (Octet)
- Design: species or system human; key: FS1—follistatin domain 1; FS2—follistatin domain 2
- assay-conditions: full length TMEFF1 ECD vs ΔFS1, ΔFS2, ΔFS1&FS2
quantity: Binding region (epitope domain binding)

molecule="M17: human anti-TMEFF1 IgG1 antibody; VH SEQ ID NO: 79, VL SEQ ID NO: 82 (antibody, V domains shown) VH: QVQLVESGGGVVQPGRSLRLSCAASGFTFRSYGMHWVRQAPGKGLEWVALIWYDGGDQYYADSVKGRFTISRDSSKSTLYLQMNSLRAEDTAVYYCARAQCGDDCYPFDYWGQGTLVTVSS VL: DIQMTQSPSSLSASVGDRVTITCRASQGIYNYLAWYQQKPGKVPKLLIYAASTLQSGVPSRFSGSGSGTDFTLTISSLQPEDVATYYCQKYNSDPWTFGQGTKLEIK" assay_value=FS1
molecule="19D9: human anti-TMEFF1 IgG1 antibody; VH SEQ ID NO: 99, VL SEQ ID NO: 101 (antibody, V domains shown) VH: QVQLVESGGGVVQPGRSLRLSCAASGFTFSIYGMHWVRQAPGKGLEWVANIWYDGSKKYYADSVKGRFTISRDNSKNTLYLQMNSLRAEDTSVYYCARDPYTSSLDYWGQGTLVTVSS VL: DIQLTQSPSFLSASVGDRVTITCRASQGISSYLAWYQQKPGKAPKLLIYTASTLQSGVPSRFSGSGSGTEFTLTISSLQPEDFATYYCQQLNSYPLTFGGGTKLEIK" assay_value=FS1
molecule="35B1: human anti-TMEFF1 IgG1 antibody; VH SEQ ID NO: 66, VL SEQ ID NO: 70 (antibody, V domains shown) VH: QVQLVESGGGVVQPGRSLRLSCAASGFTFTTYGMHWVRQAPGKGLEWVAVVWFEGNSKFYIDSVKGRFIISRDNSKNTLFLQMNSLRAEDTAVYYCARANCGADCYPFDYWGQGTLVTVSS VL: DIQMTQSPSSLSASVGDRVTITCRASQGISNYLAWYQQKPGKVPKLLIYAASTLQSGVPSRFSGSGSGTDFSLTISSLRPEDVATYYCQKYNSAPWTFGQGTKVEIK" assay_value=FS1
molecule="M33F: human anti-TMEFF1 IgG1 antibody; VH SEQ ID NO: 9, VL SEQ ID NO: 141 (antibody, V domains shown) VH: QVQLQESGPGLVKPSETLSLTCAVSGYSISSGYFWGWIRQPPGKKLEWIGSIYHSGSTYYNPSLKSRVTMSVDTSKNQFSLKLSSVTAADTAVYYCAREGDCSGGICYWYFDLWGRGTLVTVSS VL: DIQMTQSPSSLSASVGDRVTITCRASQGISNYLAWYQQKPGKVPKLLIYAASTLQSGVPSRFSGSGSGTEVTLTISSLQSEDFAVYYCQQYNKWPLTFGGGTKLEIK" assay_value=other
molecule="M1F1: human anti-TMEFF1 IgG1 antibody; VH SEQ ID NO: 9, VL SEQ ID NO: 13 (antibody, V domains shown) VH: QVQLQESGPGLVKPSETLSLTCAVSGYSISSGYFWGWIRQPPGKKLEWIGSIYHSGSTYYNPSLKSRVTMSVDTSKNQFSLKLSSVTAADTAVYYCAREGDCSGGICYWYFDLWGRGTLVTVSS VL: EIVMTQSPATLSVSPGERATLSCRASQSVSSNLAWYQQKPGQAPRLLIYGASTRATGIPARFSGSGSGTEVTLTISSLQSEDFAVYYCQQYNKWPLTFGGGTKVEIK" assay_value=Other
molecule="3H9: human anti-TMEFF1 IgG1 antibody; VH SEQ ID NO: 114, VL SEQ ID NO: 117 (antibody, V domains shown) VH: EVQLVESGGGLVKPGGSLRLSCAASGFVFSYAWMNWVRQAPGKGLEWVGRIKSKTEGGTTDNAAPVKGRFTISREDSKNTLYLQLNSLKIEDTAVYYCTTGRIAAAGFDYWGQGTLVTVSS VL: DAVVTQESALTTSPGETVTLTCRSSTGTVTTSNYANWVQEKPDHLFTGLIAGTNNRAPGVPARFSGSLIGDKAALTITGAQTEDEAIYFCALWYSNHWVFGGGTKLTVLG" assay_value=other
molecule="18C2: human anti-TMEFF1 IgG1 antibody; VH SEQ ID NO: 89, VL SEQ ID NO: 93 (antibody, V domains shown) VH: QVQLVESGGGVVQPGRSLRLSCAASGFTFSIYGMHWVRQAPGMGLEWVAIIRYDGSNKYYADSVKGRFTISRDNSKNTLYLRMNSLRAEDTAVYYCARDPFTSSLDYWGQGTLVTVSS VL: DIQLTQSPSFLSASVGDRVTITCRASQGISSYLAWYQQKPGKAPKLLIYAASTLQSGVPSRFSGSGSGTEFTLTISSLQPEDFATYYCQQLNSYPLTFGGGTKLEIK" assay_value=FS1
molecule="M1H1: human anti-TMEFF1 IgG1 antibody; VH SEQ ID NO: 9, VL SEQ ID NO: 78 (antibody, V domains shown) VH: QVQLQESGPGLVKPSETLSLTCAVSGYSISSGYFWGWIRQPPGKKLEWIGSIYHSGSTYYNPSLKSRVTMSVDTSKNQFSLKLSSVTAADTAVYYCAREGDCSGGICYWYFDLWGRGTLVTVSS VL: DIQMTQSPSSLSASVGDRVTITCRASQGISNYLAWYQQKPGKVPKLLIYAASTLQSGVPSRFSGSGSGTDFTLTISSLQPEDFAVYYCQQYNKWPLTFGGGTKLEIK" assay_value=other
